INH overview
SYSTEM_UNDER_TEST: Solute carrier organic anion transporter family member 2B1 (Homo sapiens)
Sequence (O94956 whole entry): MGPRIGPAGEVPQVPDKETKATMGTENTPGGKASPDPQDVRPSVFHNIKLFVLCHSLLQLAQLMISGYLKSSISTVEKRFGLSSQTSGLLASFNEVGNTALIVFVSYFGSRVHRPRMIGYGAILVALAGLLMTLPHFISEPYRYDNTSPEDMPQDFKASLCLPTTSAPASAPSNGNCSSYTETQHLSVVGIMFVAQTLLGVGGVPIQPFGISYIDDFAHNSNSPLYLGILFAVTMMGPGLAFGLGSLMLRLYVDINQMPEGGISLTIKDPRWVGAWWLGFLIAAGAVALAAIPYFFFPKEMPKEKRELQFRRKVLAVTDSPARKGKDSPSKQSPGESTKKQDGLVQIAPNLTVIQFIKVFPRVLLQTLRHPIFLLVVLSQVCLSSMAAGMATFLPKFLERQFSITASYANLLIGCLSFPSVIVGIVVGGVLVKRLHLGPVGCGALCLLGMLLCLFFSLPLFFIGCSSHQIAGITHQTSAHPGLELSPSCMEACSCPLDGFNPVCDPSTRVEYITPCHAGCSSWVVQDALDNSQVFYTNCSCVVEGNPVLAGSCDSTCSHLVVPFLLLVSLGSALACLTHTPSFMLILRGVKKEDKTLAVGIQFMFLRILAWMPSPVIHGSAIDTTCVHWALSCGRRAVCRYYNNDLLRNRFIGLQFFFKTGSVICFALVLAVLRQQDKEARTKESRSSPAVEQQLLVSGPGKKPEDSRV
ASSAY_INFO: Inhibition of human liver OATP2B1 expressed in HEK293 Flp-In cells assessed as reduction in [3H]E3S uptake at 20 uM incubated for 5 mins by scintillation counting
SETTINGS: hek293, 5 min
*1 amine or outer side, *2 acyl side, *3 side chain or, on linkers, in order; H or OH if unused. Where a SMILES comes first, the peptide text is derived from it. Bridges are numbered along the chain shown (N, C = ends). [ ]: non-standard residue; d: D form. Trp(2-yl) = O=C([C@H](Cc1c([*:3])[nH]c2ccccc12)N[*:1])[*:2]; Leu(4R-OH,5-OH) = C[C@](O)(CO)C[C@H](N)C(=O)O; cisHyp = O=C(O)[C@@H]1C[C@H](O)CN1

MOLECULE	SYSTEM_UNDER_TEST	INH
CC/C(=C(/CC)c1ccc(O)cc1)c1ccc(O)cc1 [DIETHYLSTILBESTROL]	Solute carrier organic anion transporter family member 2B1 (Homo sapiens)	68.1%
Cc1ccc(-c2cc(C(F)(F)F)nn2-c2ccc(S(N)(=O)=O)cc2)cc1 [CELECOXIB]	Solute carrier organic anion transporter family member 2B1 (Homo sapiens)	-69%
C=C[C@H]1C[N+]2(C)CC[C@H]1C[C@@H]2[C@@H](O)c1ccnc2ccc(OC)cc12	Solute carrier organic anion transporter family member 2B1 (Homo sapiens)	-10.3%
CSc1ccc2c(c1)N(CCC1CCCCN1C)c1ccccc1S2 (stereo unspecified) [THIORIDAZINE]	Solute carrier organic anion transporter family member 2B1 (Homo sapiens)	21.5%
O=C1c2c(O)ccc(O)c2C(=O)c2c(NCCNCCO)ccc(NCCNCCO)c21 [MITOXANTRONE]	Solute carrier organic anion transporter family member 2B1 (Homo sapiens)	48.3%
Cc1nc2c([nH]1)c(=O)n(C)c(=O)n2Cc1ccco1 [FURAFYLLINE]	Solute carrier organic anion transporter family member 2B1 (Homo sapiens)	18.1%
C[C@@H]1O[C@@H](O[C@H]2[C@H](Oc3cc(O)c4c(c3)O[C@H](c3ccc(O)cc3)CC4=O)O[C@H](CO)[C@@H](O)[C@@H]2O)[C@H](O)[C@H](O)[C@H]1O [NARINGIN]	Solute carrier organic anion transporter family member 2B1 (Homo sapiens)	47.1%
Cc1c(OCC(F)(F)F)ccnc1C[S+]([O-])c1nc2ccccc2[nH]1 (stereo unspecified) [LANSOPRAZOLE]	Solute carrier organic anion transporter family member 2B1 (Homo sapiens)	-75.7%
O=c1ccc2ccccc2o1 [COUMARIN]	Solute carrier organic anion transporter family member 2B1 (Homo sapiens)	9.3%
Cc1ccc(C)c(OCCCC(C)(C)C(=O)O)c1 [GEMFIBROZIL]	Solute carrier organic anion transporter family member 2B1 (Homo sapiens)	15.1%
C[C@]12CC[C@@H]3c4ccc(O)cc4CC[C@H]3[C@@H]1CC[C@@H]2O [ESTRADIOL]	Solute carrier organic anion transporter family member 2B1 (Homo sapiens)	47.4%
CNCCCN1c2ccccc2CCc2ccccc21 [DESIPRAMINE]	Solute carrier organic anion transporter family member 2B1 (Homo sapiens)	-4.4%
CCCc1nc2c(C)cc(-c3nc4ccccc4n3C)cc2n1Cc1ccc(-c2ccccc2C(=O)O)cc1	Solute carrier organic anion transporter family member 2B1 (Homo sapiens)	94.9%
CC(C)[C@H](N)C(=O)OCCOCn1cnc2c(=O)[nH]c(N)nc21 [VALACYCLOVIR]	Solute carrier organic anion transporter family member 2B1 (Homo sapiens)	-7.3%
CCCc1nc(C(C)(C)O)c(C(=O)OCc2oc(=O)oc2C)n1Cc1ccc(-c2ccccc2-c2nnn[nH]2)cc1 [OLMESARTAN MEDOXOMIL]	Solute carrier organic anion transporter family member 2B1 (Homo sapiens)	-7.9%
CC(C)c1nc(N(C)S(C)(=O)=O)nc(-c2ccc(F)cc2)c1/C=C/[C@@H](O)C[C@@H](O)CC(=O)O [ROSUVASTATIN]	Solute carrier organic anion transporter family member 2B1 (Homo sapiens)	51.2%
COc1ccc2c(c[n+](C)c3c4cc5c(cc4ccc23)OCO5)c1OC [CHELERYTHRINE]	Solute carrier organic anion transporter family member 2B1 (Homo sapiens)	13.1%
Cn1c(=O)c2c(ncn2C)n(C)c1=O [CAFFEINE]	Solute carrier organic anion transporter family member 2B1 (Homo sapiens)	3.2%
CCc1ccc(CCOc2ccc(CC3SC(=O)NC3=O)cc2)nc1 (stereo unspecified) [PIOGLITAZONE]	Solute carrier organic anion transporter family member 2B1 (Homo sapiens)	-9.9%
C[C@@H]1O[C@@H](O[C@H]2C[C@@H](O)[C@]3(CO)[C@H]4[C@H](O)C[C@]5(C)[C@@H](C6=CC(=O)OC6)CC[C@]5(O)[C@@H]4CC[C@]3(O)C2)[C@H](O)[C@H](O)[C@H]1O [OUABAIN]	Solute carrier organic anion transporter family member 2B1 (Homo sapiens)	-24.1%
O=C1OC(c2ccc(O)c(S(=O)(=O)[O-])c2)(c2ccc(O)c(S(=O)(=O)[O-])c2)c2c(Br)c(Br)c(Br)c(Br)c21.[Na+].[Na+] [SULFOBROMOPHTHALEIN SODIUM]	Solute carrier organic anion transporter family member 2B1 (Homo sapiens)	69.3%
C#Cc1cccc(Nc2ncnc3cc(OCCOC)c(OCCOC)cc23)c1 [ERLOTINIB]	Solute carrier organic anion transporter family member 2B1 (Homo sapiens)	93.7%
CN/C(=N/CCSCc1nc[nH]c1C)NC#N [CIMETIDINE]	Solute carrier organic anion transporter family member 2B1 (Homo sapiens)	-6.2%
COc1cc2nc(N3CCN(C(=O)c4ccco4)CC3)nc(N)c2cc1OC [PRAZOSIN]	Solute carrier organic anion transporter family member 2B1 (Homo sapiens)	1%
C[C@@H]1NC(=O)[C@H](C[C@@](C)(O)CO)NC(=O)[C@@H]2Cc3c([nH]c4ccccc34)SC[C@H](NC(=O)[C@@H]([C@H](C)O)NC1=O)C(=O)N1C[C@@H](O)C[C@H]1C(=O)N[C@@H](C)C(=O)N2 [PHALLOIDIN] (cyclo(A[dT]C[cisHyp]A[Trp(2-yl)][Leu(4R-OH,5-OH)]); thioether 3-6)	Solute carrier organic anion transporter family member 2B1 (Homo sapiens)	24.1%
CC(=O)CC(c1ccccc1)c1c(O)c2ccccc2oc1=O (stereo unspecified) [WARFARIN]	Solute carrier organic anion transporter family member 2B1 (Homo sapiens)	31.6%
C[C@H]1O[C@H](O[C@H]2[C@H](O)[C@@H](O)[C@@H](O[C@H]3[C@H](O)[C@@H](O)C(O)O[C@@H]3CO)O[C@@H]2CO)[C@H](O)[C@@H](O)[C@@H]1N[C@H]1C=C(CO)[C@@H](O)[C@H](O)[C@H]1O (stereo partly specified) [ACARBOSE]	Solute carrier organic anion transporter family member 2B1 (Homo sapiens)	0.1%
[H]/N=C(/N)N/C(=N/[H])NCCc1ccccc1 [PHENFORMIN]	Solute carrier organic anion transporter family member 2B1 (Homo sapiens)	16.7%
COc1ccc2cc3[n+](cc2c1OC)CCc1cc2c(cc1-3)OCO2 [BERBERINE]	Solute carrier organic anion transporter family member 2B1 (Homo sapiens)	18.5%
NNC(=O)c1ccncc1 [ISONIAZID]	Solute carrier organic anion transporter family member 2B1 (Homo sapiens)	23.8%
O=c1oc2cc(O)ccc2c2oc3cc(O)ccc3c12 [COUMESTROL]	Solute carrier organic anion transporter family member 2B1 (Homo sapiens)	-41.5%
